The measurements presented in this section are drawn from BigSolDB 2.1.

Conditions: in sec-butanol, 323.15 K
metric: solubility (mole fraction)

Exercise: Reported solubility (mole fraction) for CC1=NN(c2ccccc2)C(=O)C1 : what is it?
Solution: 0.0579

###

Settings: in ethyl acetate, 303.15 K
metric: solubility (mole fraction)
Respond numerically, and do not add a unit to the figure.

Exercise: Which value of solubility (mole fraction) has been reported for CC1=NN(c2ccccc2)C(=O)C1 in the records?
Solution: 0.0198

###

Details: in water, 303.15 K
metric: solubility (mole fraction)
Quick one: just the number, no unit, thanks!

Exercise: Given the entry CC1=NN(c2ccccc2)C(=O)C1 , report its measured solubility (mole fraction).
Solution: 0.000174
